Target: PI3Kγ (Homo sapiens, UniProt P48736)
Construct: made in house
Sequence (P48736 whole entry): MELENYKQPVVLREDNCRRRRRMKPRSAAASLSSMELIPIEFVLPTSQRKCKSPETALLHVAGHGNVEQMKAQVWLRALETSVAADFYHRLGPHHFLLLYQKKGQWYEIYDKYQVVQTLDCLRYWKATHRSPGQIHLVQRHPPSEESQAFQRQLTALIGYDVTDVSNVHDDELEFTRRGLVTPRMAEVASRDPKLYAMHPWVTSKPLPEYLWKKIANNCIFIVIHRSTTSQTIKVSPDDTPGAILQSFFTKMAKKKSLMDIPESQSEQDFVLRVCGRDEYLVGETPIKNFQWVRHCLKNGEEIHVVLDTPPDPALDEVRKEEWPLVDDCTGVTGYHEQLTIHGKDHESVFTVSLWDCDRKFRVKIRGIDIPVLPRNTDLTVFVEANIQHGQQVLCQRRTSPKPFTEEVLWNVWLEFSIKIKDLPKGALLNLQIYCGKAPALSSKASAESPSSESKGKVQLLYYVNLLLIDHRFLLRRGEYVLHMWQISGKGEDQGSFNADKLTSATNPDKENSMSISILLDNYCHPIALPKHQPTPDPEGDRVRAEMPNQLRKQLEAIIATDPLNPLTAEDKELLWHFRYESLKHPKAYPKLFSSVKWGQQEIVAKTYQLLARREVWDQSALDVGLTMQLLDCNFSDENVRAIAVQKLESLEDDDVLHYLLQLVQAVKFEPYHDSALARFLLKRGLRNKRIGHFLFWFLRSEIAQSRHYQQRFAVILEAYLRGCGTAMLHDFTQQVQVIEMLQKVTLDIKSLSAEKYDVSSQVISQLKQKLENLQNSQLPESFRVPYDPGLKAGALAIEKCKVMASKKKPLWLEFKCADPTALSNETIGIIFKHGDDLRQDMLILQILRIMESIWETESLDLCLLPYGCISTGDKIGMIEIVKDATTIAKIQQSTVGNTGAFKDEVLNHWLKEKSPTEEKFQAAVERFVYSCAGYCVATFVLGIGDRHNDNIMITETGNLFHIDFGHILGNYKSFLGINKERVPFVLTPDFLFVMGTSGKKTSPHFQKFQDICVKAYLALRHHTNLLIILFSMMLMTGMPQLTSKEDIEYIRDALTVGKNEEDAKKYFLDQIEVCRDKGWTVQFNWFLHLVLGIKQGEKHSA
Assay: TR-FRET enzymatic activity assay, PI3Kγ
Format: biochemical
Conditions: Table 2a; same assay; read-out: PI3Kγ IC50

[
  {
    "test-smiles": "N#Cc1c(N[C@H](c2nc3c(F)cc(F)cc3c(=O)n2-c2cc[nH]n2)C2CC2)nc(N)nc1C(F)F",
    "readout-qualifier": "=",
    "IC50 / µM": 3.8
  },
  {
    "test-smiles": "Nc1nc(N)c(Cl)c(N[C@H](c2nc3cccc(C(F)(F)F)c3c(=O)n2-c2cc[nH]n2)C2CC2)n1",
    "readout-qualifier": "=",
    "IC50 / µM": 6.6
  },
  {
    "test-smiles": "C[C@H](Nc1nc(N)nc(N)c1C#N)c1nc2cccc(Cl)c2c(=O)n1-c1c[nH]cn1",
    "readout-qualifier": "=",
    "IC50 / µM": 0.19
  },
  {
    "test-smiles": "CC[C@H](Nc1nc(N)nc(C(F)F)c1C#N)c1nc2c(Cl)cc(F)cc2c(=O)n1-c1cc[nH]n1",
    "readout-qualifier": "=",
    "IC50 / µM": 7.8
  },
  {
    "test-smiles": "CC[C@H](Nc1nc(N)nc(N)c1C#N)c1nc2cccc(C3CC3)c2c(=O)n1-c1cc[nH]n1",
    "readout-qualifier": "=",
    "IC50 / µM": 0.37
  },
  {
    "test-smiles": "Nc1nc(N)c(Cl)c(N[C@@H](c2nc3cccc(Cl)c3c(=O)n2-c2cc[nH]n2)C2CC2)n1",
    "readout-qualifier": ">",
    "IC50 / µM": 10
  },
  {
    "test-smiles": "N#Cc1c(N)nc(N)nc1N[C@H](c1nc2c(Cl)cc(F)cc2c(=O)n1-c1cn[nH]c1)C1CC1",
    "readout-qualifier": "=",
    "IC50 / µM": 0.17
  }
]
